Catalogue of IC50 readings, one per entry.
- target_under_test: SHP2 (full length) (Homo sapiens, UniProt Q06124)
- Construct: SHP2 (full length, diluted to 100 pM final concentration in reaction buffer, BPS bioscience, US); purchased BPS bioscience, US
- Sequence (Q06124 1-593): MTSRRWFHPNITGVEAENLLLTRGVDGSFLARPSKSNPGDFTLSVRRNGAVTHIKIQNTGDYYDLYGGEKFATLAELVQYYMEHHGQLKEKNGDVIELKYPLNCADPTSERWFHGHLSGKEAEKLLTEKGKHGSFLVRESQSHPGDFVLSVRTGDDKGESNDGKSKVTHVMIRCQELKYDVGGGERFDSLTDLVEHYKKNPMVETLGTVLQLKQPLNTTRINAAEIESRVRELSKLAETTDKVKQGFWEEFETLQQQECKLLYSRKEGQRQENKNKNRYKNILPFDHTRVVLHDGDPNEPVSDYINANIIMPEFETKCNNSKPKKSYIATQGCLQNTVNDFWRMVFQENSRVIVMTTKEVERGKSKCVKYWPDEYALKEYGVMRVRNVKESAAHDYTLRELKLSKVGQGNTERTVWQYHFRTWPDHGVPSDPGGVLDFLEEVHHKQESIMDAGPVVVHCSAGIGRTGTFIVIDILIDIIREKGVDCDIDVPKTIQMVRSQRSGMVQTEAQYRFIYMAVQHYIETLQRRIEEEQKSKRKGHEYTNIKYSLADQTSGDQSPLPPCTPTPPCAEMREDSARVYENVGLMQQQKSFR
- assay_comment: Phosphatase assay (PTPase assay) with DiFMUP substrate
- Assay type: biochemical
- condition: SHP2 activated with SHP2 activating peptide; DiFMUP 80 μM, 2 hours; fluorescence; read-out: IC50 (PTPase aS say)

Study these solved cases before continuing.
• COC(C)Cn1cnc2ccc(Sc3ncc(N4CCC5(CC4)Cc4scnc4[C@H]5N)nc3N)c(Cl)c2c1=O (stereo partly shown) = < 3 nM
• C[C@@H]1OCC2(CCN(c3cnc(Sc4ccc5ncn(CC6CCOCC6)c(=O)c5c4Cl)cn3)CC2)[C@@H]1N = < 3 nM
• C[C@@H]1OCC2(CCN(c3cnc(Sc4cccc(S(=O)(=O)NCc5ccccc5)c4Cl)cn3)CC2)[C@@H]1N = 3 to 100 nM

Give recorded IC50. C[C@@H]1OCC2(CCN(c3cnc(Sc4ccc5ncn(CCC(N)=O)c(=O)c5c4Cl)cn3)CC2)[C@@H]1N
3 to 100 nM

Give recorded IC50. Cn1c(N2CCN(CCN)CC2)nc(N)c(Sc2ccnc(N)c2Cl)c1=O
> 100 nM

Give recorded IC50. C[C@@H]1OCC2(CCN(c3cnc(Sc4ccc5c(c4Cl)C(=O)N(Cc4ccccc4)CC5)cn3)CC2)[C@@H]1N
3 to 100 nM

Give recorded IC50. C[C@@H]1OCC2(CCN(c3cnc(Sc4ccc5nc(OC6CCOC6)[nH]c5c4Cl)cn3)CC2)[C@@H]1N (stereo partly shown)
3 to 100 nM

These entries and their values trace back to patent US12029739B2.
